From: the Human Domainome abundance scans (Beltran et al. 2025)

B1: POU domain, class 4, transcription factor 1, residues 266 to 347; numbered along this chain, Q01851 (parent)
chain: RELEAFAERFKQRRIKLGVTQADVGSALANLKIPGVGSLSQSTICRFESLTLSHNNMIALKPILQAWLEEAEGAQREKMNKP

Variants of: B1
Assay: abundance fitness (aPCA) (normalised: wild type 0, dead -1); higher = more abundant; growth selection in yeast, the domain comes from the species named
Settings: Homo sapiens
Definition: the class of an entry is the range in class 0: < -0.2; class 1: ≥ -0.2 and < -0.01; class 2: ≥ -0.01 that contains its abundance fitness.

## Input Assign a bin to RELEAFAERFKQRRIKLGVTQADVGSALANLFIPGVGSLSQSTICRFESLTLSHNNMIALKPILQAWLEEAEGAQREKMNKP [K32F]
## Output class 2

## Input Record: RELEAFAERFKQRRIKLGVTQADLGSALANLKIPGVGSLSQSTICRFESLTLSHNNMIALKPILQAWLEEAEGAQREKMNKP [V24L]
## Output class 1

## Input And the next one, RELEAFAERFKQRRIKLGVTTADVGSALANLKIPGVGSLSQSTICRFESLTLSHNNMIALKPILQAWLEEAEGAQREKMNKP [Q21T] ?
## Output class 1

## Input And RELECFAERFKQRRIKLGVTQADVGSALANLKIPGVGSLSQSTICRFESLTLSHNNMIALKPILQAWLEEAEGAQREKMNKP [A5C] ?
## Output class 1

## Input Can you handle RELEAFAERFKQRRIKLGPTQADVGSALANLKIPGVGSLSQSTICRFESLTLSHNNMIALKPILQAWLEEAEGAQREKMNKP [V19P] next?
## Output class 0

## Input Query RELEAFAERFKQRRIKLGVTQADVGSALANLKIPGVGSLSQSTICRFESLTLSHNHMIALKPILQAWLEEAEGAQREKMNKP [N56H] next
## Output class 2

## Input // query: RELEAFAERFKQRRIKLGVTQADVGSALANLKIPGVGSLSQSTLCRFESLTLSHNNMIALKPILQAWLEEAEGAQREKMNKP [I44L]
## Output class 1

## Input Consider next the variant RELEAFAERFKQRRIKLGVTQADVGSALANLKIPGVGSLSQSTICRFESLKLSHNNMIALKPILQAWLEEAEGAQREKMNKP [T51K] in the same way.
## Output class 2

## Input And RELEAFAERFKQRRIKLGVTQADVGSALANLKIPGVGSLSQSTICRFESLTLSHNNMIALKPILQAWLEEAEGAQRELMNKP [K78L] ?
## Output class 1

## Input Now consider RELEAFAERFKQRRIKLGVTQADVGSALANLKIPGVGSLSQSTICRFESLTLVHNNMIALKPILQAWLEEAEGAQREKMNKP [S53V] .
## Output class 0

## Input How about this variant: RELEAFAERFKQRIIKLGVTQADVGSALANLKIPGVGSLSQSTICRFESLTLSHNNMIALKPILQAWLEEAEGAQREKMNKP [R14I]
## Output class 0

## Input Same question for RELEAFAERFIQRRIKLGVTQADVGSALANLKIPGVGSLSQSTICRFESLTLSHNNMIALKPILQAWLEEAEGAQREKMNKP [K11I] please.
## Output class 0

## Input Also check RELEAFAERFKQRRIKLGVTQADVGSALANLKIPGVGCLSQSTICRFESLTLSHNNMIALKPILQAWLEEAEGAQREKMNKP [S38C]
## Output class 0

## Input Follow-up item: RELEAFAWRFKQRRIKLGVTQADVGSALANLKIPGVGSLSQSTICRFESLTLSHNNMIALKPILQAWLEEAEGAQREKMNKP [E8W]
## Output class 0

## Input Field entry: RELEAFAERFKQRRIKLGVTQADVGSALANLKILGVGSLSQSTICRFESLTLSHNNMIALKPILQAWLEEAEGAQREKMNKP [P34L]
## Output class 1

## Input And then RELEAFAERFKQRRIKLGVTQADVGSALANLKIPGVGSLSQSTICRFESATLSHNNMIALKPILQAWLEEAEGAQREKMNKP [L50A] , what is it?
## Output class 2

## Input What about RELEAFAERFKQRRIKLGVTQADVGSALANLKIPGVGSLSQSTICRFESLTLSHNNMIALKPILQAWLEEAEGAQREEMNKP [K78E] ?
## Output class 2

## Input And the next one, RELEAFAERFKQRRIKLGVTQADVGSALAFLKIPGVGSLSQSTICRFESLTLSHNNMIALKPILQAWLEEAEGAQREKMNKP [N30F] ?
## Output class 2

## Input Likewise for RELEAFAERFKQRRIKLGVTQADVGSALANLKFPGVGSLSQSTICRFESLTLSHNNMIALKPILQAWLEEAEGAQREKMNKP [I33F] ?
## Output class 1

## Input # repeat for RELEAFAERFKQRFIKLGVTQADVGSALANLKIPGVGSLSQSTICRFESLTLSHNNMIALKPILQAWLEEAEGAQREKMNKP [R14F]
## Output class 0

## Input Another: RELEAFAERFKQRRIKLGVTQADVGSALKNLKIPGVGSLSQSTICRFESLTLSHNNMIALKPILQAWLEEAEGAQREKMNKP [A29K]
## Output class 2

## Input What do you get for RELEAFAERFKQRRIKLGVTQADVGSALANLKIPGVGSLSQSTICRFESLTLSHNNMIAEKPILQAWLEEAEGAQREKMNKP [L60E] ?
## Output class 0
